target: Pim2 kinase (Homo sapiens, UniProt Q9P1W9); test: Pim2 ATP depletion assay; format: biochemical; conditions: read-out: IC50 (μM) PIM2;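 note: Luciferase-based luminescent readout of ATP remaining after PIM2 phosphorylates a BAD peptide, final 5 nM enzyme, 4 µM ATP, 10 µM peptide, 2.5% DMSO, run to roughly half ATP consumption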
Sequence (Q9P1W9 whole entry): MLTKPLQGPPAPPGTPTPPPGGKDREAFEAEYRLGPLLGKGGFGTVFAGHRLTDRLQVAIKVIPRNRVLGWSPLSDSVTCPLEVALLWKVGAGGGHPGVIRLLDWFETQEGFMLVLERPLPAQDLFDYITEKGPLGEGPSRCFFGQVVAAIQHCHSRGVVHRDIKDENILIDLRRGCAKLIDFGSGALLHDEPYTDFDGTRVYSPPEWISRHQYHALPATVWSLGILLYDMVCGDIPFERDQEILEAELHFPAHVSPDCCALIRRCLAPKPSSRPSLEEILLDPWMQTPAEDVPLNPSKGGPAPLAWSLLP
Listed next: entries and their corresponding IC50.

// below: answered compounds
Nc1ncc(-c2ccccc2Cl)nc1C(=O)Nc1[nH]c(=O)ncc1N1CCCC(N)C1 (stereo not shown); < 1 µM
Nc1ccc(-c2ccccc2F)nc1C(=O)Nc1cnccc1N1C[C@H](N)C[C@H](N)C1; < 1 µM
Nc1ccc(-c2cccc(-c3ccccc3)c2)nc1C(=O)Nc1cnccc1N1CCC[C@H](N)C1; < 1 µM

Find the recorded IC50 belonging to CS(=O)(=O)c1cccc(-c2ccc(N)c(C(=O)Nc3cnccc3N3CCC[C@H](N)C3)n2)c1 and report it. < 1 µM

Find the recorded IC50 belonging to Nc1nccnc1C(=O)Nc1cnccc1C1=CCCCC1 and report it. 1 to 10 µM

Find the recorded IC50 belonging to COc1ccc(-c2cnc(N)c(C(=O)Nc3cc(C(=O)c4ccccc4)ccc3N3CCNCC3)n2)cc1 and report it. > 25 µM

Find the recorded IC50 belonging to Nc1cccnc1C(=O)Nc1cnccc1N1CCC[C@H](N)C1 and report it. < 1 µM

Find the recorded IC50 belonging to Nc1ccc(-c2cccnc2F)nc1C(=O)Nc1cnccc1N1CCC[C@H](N)C1 and report it. < 1 µM

Find the recorded IC50 belonging to Cc1cnc(N)c(C(=O)Nc2ccccc2N2CCC(N)CC2)n1 and report it. 10 to 25 µM

Find the recorded IC50 belonging to Nc1ccc(-c2nc(C(=O)Nc3cnccc3N3CCC[C@H](N)C3)c(N)cc2F)cn1 and report it. < 1 µM

Find the recorded IC50 belonging to Nc1ccc(-c2cncnc2)nc1C(=O)Nc1cnccc1N1CCC[C@H](N)C1 and report it. < 1 µM

* * *

Listed next: entries and their corresponding IC50.
molecular target: Pim3 kinase (Homo sapiens, UniProt Q86V86); assay: Pim3 ATP depletion assay; type: biochemical; settings: read-out: IC50 (μM) PIM3

// below: answered compounds
COc1nc(N)ncc1-c1ccc(N)c(C(=O)Nc2cnccc2N2CCC[C@H](N)C2)n1 [Example 485]; < 1 µM
Nc1ncc(-c2ccccc2)nc1C(=O)Nc1cc(C(=O)c2ccccc2)ccc1N1CCCC(N)C1 (stereo not shown) [Example 435]; 1 to 10 µM
Nc1ncc(-c2ccccc2Cl)nc1C(=O)Nc1[nH]c(=O)ncc1N1CCCC(N)C1 (stereo not shown) [Example 402]; < 1 µM

As a next step, examine the compound that follows.
Find the recorded IC50 belonging to Nc1nccnc1C(=O)Nc1c(F)cccc1N1CCC(N)CC1 [Example 209] and report it. > 25 µM

* * *

Listed next: entries and their corresponding IC50.
molecular target: KDR kinase (Homo sapiens, UniProt P35968); assay: KDR AlphaScreen assay; conditions: KDR IC50 (μM)
Sequence (P35968 20-1356): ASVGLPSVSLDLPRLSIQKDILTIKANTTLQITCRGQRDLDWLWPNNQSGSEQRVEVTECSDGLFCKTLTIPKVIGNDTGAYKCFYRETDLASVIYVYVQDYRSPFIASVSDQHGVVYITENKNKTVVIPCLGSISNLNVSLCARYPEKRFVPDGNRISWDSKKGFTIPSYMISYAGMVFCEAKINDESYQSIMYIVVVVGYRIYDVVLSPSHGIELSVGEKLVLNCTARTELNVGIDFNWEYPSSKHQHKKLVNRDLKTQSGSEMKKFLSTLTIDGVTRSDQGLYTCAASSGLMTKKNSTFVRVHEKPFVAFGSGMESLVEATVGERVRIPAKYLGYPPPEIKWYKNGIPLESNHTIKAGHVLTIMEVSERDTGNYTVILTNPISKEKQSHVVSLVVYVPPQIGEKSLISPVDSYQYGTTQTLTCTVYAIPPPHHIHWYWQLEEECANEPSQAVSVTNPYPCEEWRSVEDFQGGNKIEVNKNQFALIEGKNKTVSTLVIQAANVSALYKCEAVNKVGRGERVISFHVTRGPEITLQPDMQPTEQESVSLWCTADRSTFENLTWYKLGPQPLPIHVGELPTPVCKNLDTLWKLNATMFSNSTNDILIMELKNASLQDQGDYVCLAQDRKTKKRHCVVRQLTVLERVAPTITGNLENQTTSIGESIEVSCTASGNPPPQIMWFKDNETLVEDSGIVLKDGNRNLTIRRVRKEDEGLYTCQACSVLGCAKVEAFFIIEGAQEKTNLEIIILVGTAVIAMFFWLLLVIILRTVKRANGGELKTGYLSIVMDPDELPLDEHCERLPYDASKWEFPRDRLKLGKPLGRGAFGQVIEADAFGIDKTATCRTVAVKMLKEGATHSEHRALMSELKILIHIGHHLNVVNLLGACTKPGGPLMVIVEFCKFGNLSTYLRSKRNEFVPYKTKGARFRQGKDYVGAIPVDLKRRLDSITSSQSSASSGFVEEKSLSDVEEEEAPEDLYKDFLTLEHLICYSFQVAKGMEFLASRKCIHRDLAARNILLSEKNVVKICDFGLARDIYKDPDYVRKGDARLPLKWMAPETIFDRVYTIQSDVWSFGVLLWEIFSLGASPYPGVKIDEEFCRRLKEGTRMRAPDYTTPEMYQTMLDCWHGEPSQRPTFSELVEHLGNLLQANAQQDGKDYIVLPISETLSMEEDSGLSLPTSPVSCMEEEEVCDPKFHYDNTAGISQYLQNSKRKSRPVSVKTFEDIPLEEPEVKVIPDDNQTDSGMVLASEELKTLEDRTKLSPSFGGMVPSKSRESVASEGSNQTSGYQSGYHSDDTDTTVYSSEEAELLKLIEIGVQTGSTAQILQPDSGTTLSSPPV

// below: answered compounds
Nc1ccc(-c2ccccc2F)nc1C(=O)Nc1cnccc1N1CCCC(O)(C(F)(F)F)C1 (stereo not shown); 10 to 25 µM
Nc1nccnc1C(=O)Nc1cnccc1N1CCCCC1; 1 to 10 µM
Nc1ncc(Br)nc1C(=O)Nc1ccccc1N1CCC(N)CC1; 1 to 10 µM

As a next step, examine the compound that follows.
Find the recorded IC50 belonging to Nc1ccc(-c2scc3c2OCCO3)nc1C(=O)Nc1cnccc1N1CCC[C@H](N)C1 and report it. 10 to 25 µM
